Hey, just so you know, these numbers are from PubChem BioAssay (NCI).

Consider the following compounds and their measured growth inhibition readings.
Test: NCI Yeast Anticancer Drug Screen. Data for the rad50 strain (AID 155);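 further: 0% = growth of vehicle-only cultures of the same strain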
Conditions: S. cerevisiae rad50 strain growth inhibition; at 50.0 µM; hits give high values
About 79,000 compounds went through this panel and 15% of them were active in at least one assay; those are over-represented in the sample as a whole.

compound | measure unit | growth inhibition
CCC(CC)(c1ccc(C)cc1)c1ccc(C)cc1 | % | 99.5
CN(O)C(=S)c1ccccc1 | % | 91.7
CCOc1cc(C(c2ccc(N(C)C)cc2)c2ccc(N(C)C)cc2)ccc1O | % | 36.2
CC1CCC(NCCOC(=O)c2ccc([N+](=O)[O-])cc2)CC1 (stereo unspecified) | % | 70.8
CC1CC(C)CC(C(O)(C(=O)O)C2CC(C)CC(C)C2)C1 (stereo unspecified) | % | 99.2
C=C1CCC[C@@H]2[C@@](C)(CC3=CC(=O)C=CC3=O)C(C)CC[C@]12C (stereo partly specified) | % | 98.5
Cn1nc2c(c(Cl)c1=O)Nc1ccccc1O2 | % | 0.85
Cc1cc(N)c2cc(OCCOc3ccc4nc(C)cc(N)c4c3)ccc2n1 | % | 97.5
CC(CN1CCCCCCC1)C(c1ccccc1)c1ccccc1 (stereo unspecified) | % | 66.3
CCOC(=O)c1ccccc1NC(OCC)C(=O)c1ccccc1 (stereo unspecified) (tested in a mixture with another compound) | % | 75
Oc1cc(C(c2ccccc2)c2ccccc2)c2ccccc2c1O | % | 97.6

###

Test: NCI Yeast Anticancer Drug Screen. Data for the sgs1 mgt1 strain (AID 161);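 further: 0% = growth of cultures given vehicle only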
Settings: S. cerevisiae sgs1 mgt1 strain, at 50.0 µM (retest, dose inferred, filed as 5.0)
About 79,000 compounds went through this panel and 15% of them were active in at least one assay; those are over-represented in the sample as a whole. Calls of active or inactive are those of the source. Cut-off read from the data, not from the text of the source: active = growth inhibition above about 70%; inactive = the rest.
Possible outcomes: 1.0 (active), 0.0 (inactive)

record smiles | assigned class
C/C(=N/NC(=S)Nc1cccc(C)c1)c1ccccn1 | 1.0
c1ccc2nc3[nH]c4ccccc4c3cc2c1 | 0.0
CS(=O)(=O)c1cc(=O)c2ccccc2s1 | 1.0
COc1ccc2c(Cc3cccc([N+](=O)[O-])c3)cncc2c1O | 0.0
Clc1ccc(C2=CCN3CC=C(c4ccc(Cl)cc4)C23)cc1 | 0.0
COc1ccc(-c2[nH]c(-c3ccc(OC)cc3)c(-c3ccccn3)c2-c2ccccn2)cc1 | 0.0

###

Test: NCI Yeast Anticancer Drug Screen. Data for the cln2 rad14 strain (AID 165);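 further: 0% = growth equal to vehicle treated cultures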
Conditions: S. cerevisiae cln2 rad14 strain, at 50.0 µM, hits give high values
About 79,000 compounds went through this panel and 15% of them were active in at least one assay; those are over-represented in the sample as a whole.
Consider the following compounds and their measured growth inhibition readings.
property measured: growth inhibition (%)

compound | property measured | measure unit | assay value
O=C1/C(=C/c2ccccc2Cl)COc2ccccc21 | growth inhibition | % | 90.8
COc1ccc(CN2CCCN(Cc3ccc(OC)cc3)C2Cc2cc(Cl)ccc2OC)cc1 | growth inhibition | % | 33.4
CC(=O)OC(OC(C)=O)c1ccc2ccc3cccc4ccc1c2c34 | growth inhibition | % | 45.2
Cc1ccc(C)c2[nH]c(-c3ccccc3)cc12 | growth inhibition | % | 99.1
CCCCCCCCC1N(C)CCCN1C | growth inhibition | % | 98.3
CSc1nc2c(c(=O)[nH]1)C1C=C(C)CCC1C(C)(C)C2 (stereo not drawn) | growth inhibition | % | 69.2
Oc1cc(F)cc2cccnc12 | growth inhibition | % | 92.5
CCCCCCCCCCCCc1ccc(S(=O)(=O)O)cc1.[Zn+2] | growth inhibition | % | -49
CCOC(=O)OC(=S)N(C1CCCCC1)C1CCCCC1 | growth inhibition | % | 41.4
CCCCCCCCCCCCNCc1ccc2c(c1)OCO2 | growth inhibition | % | 95.9
COS(=O)c1cc(Cl)cc(Cl)c1OC(=O)CSSCC(=O)Oc1c(Cl)cc(Cl)cc1S(=O)OC (stereo not drawn) | growth inhibition | % | 99.3
COc1cc(C(=O)OCC(C)C)ccc1O | growth inhibition | % | -16.1
CC(C(=O)c1ccc2cc(Br)c3ccccc3c2c1)N(C)C (stereo not drawn) | growth inhibition | % | 99.5

###

Assay: NCI Yeast Anticancer Drug Screen. Data for the bub3 strain (AID 167)
Details: S. cerevisiae bub3 mutant strain, at 50.0 µM, hits give high values
Compounds without any hit were thinned out: in the full panel of roughly 79,000, 15% have a hit.

compound | growth inhibition [%]
Cc1nc2c(O)c3c(c(O)c2nc1C)C1C=CC3CC1 | 84.7
COC(=O)c1cn(NS(=O)(=O)c2ccc(OC)cc2)cc1C(=O)OC | -1.9
O=C(CCn1[nH]c(=O)c(Cl)c(Cl)c1=O)NNc1ccc([N+](=O)[O-])cc1[N+](=O)[O-] | 26.2
O=C(/C=C/c1cccc([N+](=O)[O-])c1)CCl | 99.5
CS(=O)(=O)OC1C(O)C(n2cnc3c(N)ncnc32)C(O)C(OS(C)(=O)=O)C1OS(C)(=O)=O (centres undefined) | 40
COc1cc(C(=O)C2OC2c2ccc(Cl)cc2)c([N+](=O)[O-])cc1OC (centres undefined) | 36.8
C[C@]12CCC(=O)C=C1CC[C@@H]1[C@@H]2[C@@H](O)C[C@@]2(C)[C@H]1CC[C@]2(O)C(=O)COC(=O)CCC1CCCC1 | 77.2
CC12C(=O)OC(=O)C1C1c3ccccc3C2c2ccccc21 (centres undefined) | 89.5
O=C(CC1Sc2ccccc2NC1=O)Nc1ccc([N+](=O)[O-])cc1[N+](=O)[O-] (centres undefined) | 92

###

Consider the following compounds and their measured growth inhibition readings.
Assay: NCI Yeast Anticancer Drug Screen. Data for the mlh1 rad18 strain (AID 175)
Conditions: S. cerevisiae mlh1 rad18 strain growth inhibition; at 5.0 µM (retest, dose inferred, filed as 0.5); hits give high values
About 79,000 compounds went through this panel and 15% of them were active in at least one assay; those are over-represented in the sample as a whole.

compound | measure unit | growth inhibition
O=C1C2=C(CCCC2)C(=O)C(Cl)C1Cl (stereo unspecified) | % | 62
COc1ccc(OC)c2c(=S)c3ccccc3[nH]c12 | % | -5
CCOC(=O)C1(C#N)C(=O)CSC1=Nc1ccccc1Cl (stereo unspecified) | % | -33
FC(F)(F)c1nc2cc(SSc3cc4nc(C(F)(F)F)[nH]c4cc3Cl)c(Cl)cc2[nH]1 | % | -12
C/C(CC(O)(C(F)(F)F)C(F)(F)F)=N/Nc1ccc([N+](=O)[O-])cc1[N+](=O)[O-] | % | 12
CC(Br)C(=O)c1ccc2cc(Cl)c3ccccc3c2c1 (stereo unspecified) | % | 7
O=C(O)/C=C\c1cc2ccccc2c2ccccc12 | % | 18
COc1cccc(=O)cc1 | % | 3
O=C1C(=O)C(CCCO)(CCCO)CCCCCCCCC1(CCCO)CCCO | % | -8
Cc1ccc(S(=O)(=O)C(C#N)(CCC(=O)/C=C/c2ccccc2)CCC(=O)/C=C/c2ccccc2)cc1 | % | 1
O=C1/C(=C/c2ccc(F)cc2)CNC/C1=C\c1ccc(F)cc1 | % | 16

###

Test: NCI Yeast Anticancer Drug Screen. Data for the bub3 strain (AID 167)
Details: S. cerevisiae bub3 mutant strain, at 50.0 µM (retest, dose inferred, filed as 5.0), hits give high values
Compounds without any hit were thinned out: in the full panel of roughly 79,000, 15% have a hit.
property measured: growth inhibition (%)

molecule | measure unit | assay value
O=S(=O)(c1ccccc1)n1cc(C[P+](c2ccccc2)(c2ccccc2)c2ccccc2)c2ccccc21 | % | 99
CC[N+](C)(CC)CCC[n+]1c(-c2ccccc2)c2cc(N)ccc2c2ccc(N)cc21 | % | 9
COc1cc2c(cc1O)-c1c(cnn1-c1ccccc1)CCC2 | % | 86
CN(C)CCC(=O)c1ccc2c(ccc3ccccc32)c1 | % | 94
CCCCCCCCCCCCCCCCCC[n+]1ccc(C(C)CC)cc1 (stereo unspecified) | % | 96
COc1ccc2c(c1)nc1ccc(Cl)cc1[n+]2C | % | 70
CCN(CC)CCNc1ccc(C)c2oc3ccc(O)cc3c(=O)c12 | % | 41
C(=[CH]/[Sn]([c]1ccccc1)([c]1ccccc1)[c]1ccccc1)/c1ccccc1 | % | 85
FC(F)(F)c1[nH]nc(-c2cccs2)c1N=NN1CCOCC1 | % | 99
COC1CCC2(C)C(=CCC3C4CC(OC(C)=O)CC4(C)CCC32)C1 (stereo unspecified) | % | 6
O=C(Cc1nc2ccccc2s1)C(=O)Nc1ccc(Cl)cc1 | % | -2

###

Experiment: NCI Yeast Anticancer Drug Screen. Data for the rad50 strain (AID 155);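 further: 0% = growth of vehicle-only cultures of the same strain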
Details: S. cerevisiae rad50 strain growth inhibition; at 5.0 µM (retest, dose inferred, filed as 0.5)
About 79,000 compounds went through this panel and 15% of them were active in at least one assay; those are over-represented in the sample as a whole. Activity calls are given as the source filed them. Rule as the data show it: active = growth inhibition above about 70%; inactive = the rest.
Possible outcomes: active, inactive

molecule | assigned class
S=C1NC2=C(CSC/C2=C\c2cccc(Br)c2)C(c2cccc(Br)c2)N1 (stereo not drawn) | inactive
CCCCCCCC(CC(=O)O)OC(=O)CC(CCCCCCC)OC1OC(C)C(O)C(O)C1OC1OC(C)C(O)C(O)C1O (stereo not drawn) | inactive
C/C(=N/NC(N)=S)C(CN1CCOCC1)C(C1=C(O)c2ccccc2OC1)c1ccccc1 (stereo not drawn) | inactive
C/C(=N\OS(=O)(=O)O)SC1OC(CO)C(O)C(O)C1O (stereo not drawn) | inactive
CC1CC(c2ccccc2)(c2ccccc2)C(=O)C(C)N1C (stereo not drawn) | inactive
Cc1cc(N(CCCCl)CCCCl)ccc1C=Nc1cccc(Cl)c1 | inactive
CC(C)NC(=O)O/N=C1\CCC2[C@@H]3CC=C4C[C@@H](OC(=O)NC(C)C)CC[C@]4(C)C3CC[C@]12C (stereo partly drawn) | active
CCOC(=O)c1ccc(O)c(OC)c1 | inactive
CCCC/C=C(\CCCNCCCC)[Si](C)(C)C | inactive
CC(C)=C1C=C2CCC3C(C)(C(=O)O)CCCC3(C)C2CC1 (stereo not drawn) (tested in a mixture with another compound) | inactive
CCCCNc1ccc(C(=O)OC2CCN(C)CC2)c(Cl)c1 | active
[Cl][Pt+2][Cl].[NH-]CC1(C[NH-])CCCC1 | inactive
CC(=O)Nc1cc(Cl)c2c(c1)C(=O)c1ccccc1-2 | inactive
CC(C)CCCOC(=O)c1cc([N+](=O)[O-])cc([N+](=O)[O-])c1 | inactive
CCC(C)COC(=O)c1ccc([N+](=O)[O-])cc1 (stereo not drawn) | inactive
CC[Si](CC)(CC)c1ccc(CCNCCS)s1 | inactive
CC(C)C1=CC2=CCC3C(C)(C(=O)O)CCCC3(C)C2CC1 (stereo not drawn) (tested in a mixture with another compound) | inactive
Cc1ccc(/C=N/NS(=O)(=O)c2ccccc2)c(C)c1 | inactive
C=CCOc1ccccc1C(OCC)OCC | inactive
Cc1ccc(C(=O)/C=C/c2ccccc2)cc1 | inactive
O=C(O)C(S(=O)(=O)O)S(=O)(=O)O | active
CC(=O)N=C1N(/C=C2\C(=O)Oc3ccccc3C2=O)C(=O)/C(=C/c2cccc(Cl)c2Cl)N1C | inactive
COc1ccc(N=NN2CCCC2)cc1 | inactive
